# system: 0N4R Tau fibrils (Homo sapiens, UniProt P10636)
# Construct: made in house
# Sequence (P10636 1-383 isoform P10636-6): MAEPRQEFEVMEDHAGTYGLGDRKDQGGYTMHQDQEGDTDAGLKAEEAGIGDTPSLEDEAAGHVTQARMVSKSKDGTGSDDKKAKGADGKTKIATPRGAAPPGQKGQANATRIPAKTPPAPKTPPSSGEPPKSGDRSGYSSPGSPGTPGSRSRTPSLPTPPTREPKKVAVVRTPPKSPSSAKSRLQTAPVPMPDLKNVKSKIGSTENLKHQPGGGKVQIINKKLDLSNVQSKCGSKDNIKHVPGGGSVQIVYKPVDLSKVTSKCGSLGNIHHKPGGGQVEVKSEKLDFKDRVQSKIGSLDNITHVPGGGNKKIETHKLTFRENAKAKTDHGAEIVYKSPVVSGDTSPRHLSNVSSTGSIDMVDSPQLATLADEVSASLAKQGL
# method: ^3H-THK5117 competition binding to tau fibrils in vitro
# studyConditions: calculated from [^3H]-THK5117 tau and [^3H]-AZD2184 Aβ assays
Listing: Selectivity for tau relative to Aβ of selected molecules
Form field (numeric): enter value without unit.

Example cases with answers are listed next.
molecule | observedValue
FCCC1CCN(c2ncc(-c3cc4ccccc4o3)cn2)CC1 | 2.1
OCCC1CCN(c2ncc(-c3cc4ccccc4o3)cn2)CC1 | 1.5

Could you now consider this next molecule?
Ask: Name the reported Selectivity for tau relative to Aβ value associated with the molecule `COc1ccc2nc(-c3ccc(N4CCC(OCCO)CC4)nc3)sc2c1`
Result: 1
